assay: Liver microsomal metabolism assay, mouse; assay type: in vitro ADME; conditions: pH 7.4; mouse liver microsomes 0.5 mg/ml, 1 mM NADPH, 37° C.
propertyLabel: half-life (min)
Give the quantity in min, number only.

What does the record list as half-life for CC1=C(C(=O)Nc2cccc(C(F)(F)F)c2)C(c2cccc([N+](=O)[O-])c2)C2=C(CC(C)(C)CC2=O)N1 (stereo not shown) [hexahydroquinoline derivative] ?
31.2

----------
assay: Liver microsomal metabolism assay, mouse; assay type: in vitro ADME; conditions: liver microsomes, pH 7.4; mouse; hepatic intrinsic clearance CLint(liver), scaled with 45 mg protein/g liver, 88 g/kg
propertyLabel: CLint scaled (mL/min/kg)
Give the quantity in mL/min/kg, number only.

What does the record list as CLint scaled for CC1=C(C(=O)Nc2cccc(C(F)(F)F)c2)C(c2cccc([N+](=O)[O-])c2)C2=C(CC(C)(C)CC2=O)N1 (stereo not shown) [hexahydroquinoline derivative] ?
176

----------
test: Liver microsomal metabolism assay, rat; type: in vitro ADME; settings: pH 7.4; rat liver microsomes 0.5 mg/ml, 1 mM NADPH, 37° C.
propertyLabel: half-life

What does the record list as half-life for CC1=C(C(=O)Nc2cccc(C(F)(F)F)c2)C(c2cccc([N+](=O)[O-])c2)C2=C(CC(C)(C)CC2=O)N1 (stereo not shown) [hexahydroquinoline derivative] ?
14.1 min

----------
Test: Liver microsomal metabolism assay, rat
Format: in vitro ADME
Details: liver microsomes, pH 7.4; rat; hepatic intrinsic clearance CLint(liver), scaled with 45 mg protein/g liver, 40 g/kg
Protocol: In the microsomal metabolism assay, the inhibitor was incubated with liver microsomes from different species; the reaction was terminated at different time points; the remaining amount of the inhibitor in the samples at each time point was determined using LC-MS/MS. The percentage of parent drug remaining was calculated, and the hepatic intrinsic clearance CLint(liver) was finally obtained. Testosterone was used as a control in this study to verify the reliability of the experimental system. […]
propertyLabel: CLint scaled (mL/min/kg)
Give the quantity in mL/min/kg, number only.

What does the record list as CLint scaled for CC1=C(C(=O)Nc2cccc(C(F)(F)F)c2)C(c2cccc([N+](=O)[O-])c2)C2=C(CC(C)(C)CC2=O)N1 (stereo not shown) [hexahydroquinoline derivative] ?
178
